Give measured koff for each item. Keep answers brief.
- Measured On: T1, human MASP-2 protein (recombinant, full-length, C-terminal tag) (human, UniProt O00187 16-686)
- T1 construct: The protein was secreted and purified on an anti-FLAG or anti-HIS column; also called hMASP-2; Full-length human MASP-2 protein; not shown: C-terminal HIS-tag or FLAG-tag
- Assay Details: BLI (ForteBio Octet RED96), antibody on Protein A biosensor, human MASP-2 in solution (100, 50, 25 nM)

Answer for every listed entry: what is its koff? The entries follow.
1. 129C10 HcLb (antibody, human IgG4, V domains shown, Humanized) VH: QVQLVQSGAEVKKPGASVKVSCKASGYTFTDYYINWVRQAPGQGLEWMGWIFPGSESAYHSQKFQGRVTMTVDTSISTAYMELSRLRSDDTAVYYCTRGDRSGPFAYWGQGTLVTVSS VL: DVVMTQSPLSLPVTLGQPASISCKSSQSLLYSNGKTYLNWLQQRPGQSPRRLIYLVSKLDSGVPDRFSGSGSGADFTLKISRVEAEDVGVYYCVQVTHFPFTFGQGTKLEIK
2. 129C10 HbLa (antibody, human IgG4, V domains shown, Humanized) VH: QVQLVQSGAEVKKPGASVKVSCKASGYTFTDYYINWVRQAPGQGLEWMGWIFPGSESAYHSEKFKARATLTVDTSISTAYMELSRLRSDDTAVYYCTRGDRSGPFAYWGQGTLVTVSS VL: DVVMTQSPLSLPVTLGQPASISCKSSQSLLYSNGKTYLNWLQQRPGQSPRRLIYLVSKLDSGVPDRFSGSGSGTDFTLKISRVEAEDVGVYYCVQVTHFPFTFGQGTKLEIK
3. 129C10 HcLa (antibody, human IgG4, V domains shown, Humanized) VH: QVQLVQSGAEVKKPGASVKVSCKASGYTFTDYYINWVRQAPGQGLEWMGWIFPGSESAYHSQKFQGRVTMTVDTSISTAYMELSRLRSDDTAVYYCTRGDRSGPFAYWGQGTLVTVSS VL: DVVMTQSPLSLPVTLGQPASISCKSSQSLLYSNGKTYLNWLQQRPGQSPRRLIYLVSKLDSGVPDRFSGSGSGTDFTLKISRVEAEDVGVYYCVQVTHFPFTFGQGTKLEIK
4. 129C10 HdLb (antibody, human IgG4, V domains shown, Humanized) VH: QVQLVQSGAEVKKPGASVKVSCKASGYTFTDYYINWVRQAPGQGLEWMGWIFPGSESAYHSQKFQGRATLTVDTSISTAYMELSRLRSDDTAVYYCTRGDRSGPFAYWGQGTLVTVSS VL: DVVMTQSPLSLPVTLGQPASISCKSSQSLLYSNGKTYLNWLQQRPGQSPRRLIYLVSKLDSGVPDRFSGSGSGADFTLKISRVEAEDVGVYYCVQVTHFPFTFGQGTKLEIK

Result string:
1. 4.56e-05 s⁻¹
2. < 1e-07 s⁻¹
3. < 1e-07 s⁻¹
4. < 1e-07 s⁻¹

Please state, for each entry, its recorded koff.
1. 129C10 HdLa (antibody, human IgG4, V domains shown, Humanized) VH: QVQLVQSGAEVKKPGASVKVSCKASGYTFTDYYINWVRQAPGQGLEWMGWIFPGSESAYHSQKFQGRATLTVDTSISTAYMELSRLRSDDTAVYYCTRGDRSGPFAYWGQGTLVTVSS VL: DVVMTQSPLSLPVTLGQPASISCKSSQSLLYSNGKTYLNWLQQRPGQSPRRLIYLVSKLDSGVPDRFSGSGSGTDFTLKISRVEAEDVGVYYCVQVTHFPFTFGQGTKLEIK
2. 129C10 HbLb (antibody, human IgG4, V domains shown, Humanized) VH: QVQLVQSGAEVKKPGASVKVSCKASGYTFTDYYINWVRQAPGQGLEWMGWIFPGSESAYHSEKFKARATLTVDTSISTAYMELSRLRSDDTAVYYCTRGDRSGPFAYWGQGTLVTVSS VL: DVVMTQSPLSLPVTLGQPASISCKSSQSLLYSNGKTYLNWLQQRPGQSPRRLIYLVSKLDSGVPDRFSGSGSGADFTLKISRVEAEDVGVYYCVQVTHFPFTFGQGTKLEIK
3. 129C10 HaLb (antibody, human IgG4, V domains shown, Humanized) VH: QVQLVQSGAEVKKPGASVKVSCKASGYTFTDYYINWVRQAPGQGLEWMGWIFPGSESAYHSEKFKARVTMTVDTSISTAYMELSRLRSDDTAVYYCTRGDRSGPFAYWGQGTLVTVSS VL: DVVMTQSPLSLPVTLGQPASISCKSSQSLLYSNGKTYLNWLQQRPGQSPRRLIYLVSKLDSGVPDRFSGSGSGADFTLKISRVEAEDVGVYYCVQVTHFPFTFGQGTKLEIK

Result string:
["0.000425 s⁻¹", "< 1e-07 s⁻¹", "0.000291 s⁻¹"]
